assayProtocol: qHTS Assay for Enhancers of SMN2 Splice Variant Expression; also: nearly all actives have a fitted effect of over 55% in size
conditionDetails: HEK293 SMN2-luciferase splicing reporter, luminescence, 30-36 h; series mostly up to 46.1 µM
About 5,900 (2.8%) of roughly 210,000 compounds were called active. Another 5% or so got no clear call; they are omitted. Calls follow the shape of the dose curve; as a rule, active = well fitted activation curve with a large enough effect; inconclusive = small, poorly fitted or top-dose-only effect; inactive = no such curve, though single readings can be large or run the other way. The list comes from a sample in which actives are over-represented; it also holds close analogues and randomly drawn compounds.
Respond only with the outcome that fits, drawn from active, inactive

Worked set:
- compound: "COc1ccc(C(=O)n2nc(-c3ccc(C)cc3)nc2N)cc1OC"
  discreteLabel: "inactive"
- compound: "COc1ccc(C(=O)n2nc(-c3ccc(Cl)cc3)nc2N)cc1OC"
  discreteLabel: "active"
- compound: "COc1ccccc1C(=O)n1nc(-c2ccccc2)nc1N"
  discreteLabel: "inactive"
- compound: "O=C(O)c1ccc(N/N=C/c2cn(-c3ccccc3)nc2-c2cccs2)cc1"
  discreteLabel: "active"
- compound: "CCCC(=O)Nc1nc2ccc(NC(=O)c3c(F)c(F)c(OC)c(F)c3F)cc2s1"
  discreteLabel: "inactive"
- compound: "CCOC(=O)CSc1nnc(NC(=O)c2cccc(S(=O)(=O)N3CCCCC3)c2)s1"
  discreteLabel: "inactive"

Kindly review the next compound as well.
Hello, I am checking results. What call was entered for O=C(Cc1ccccc1)NC(=S)Nc1ccc(N2CCCCC2)cc1 ?
inactive

###

assayProtocol: qHTS Assay for Enhancers of SMN2 Splice Variant Expression; also: nearly all actives have a fitted effect of over 55% in size
conditionDetails: HEK293 SMN2-luciferase splicing reporter, luminescence, 30-36 h; series mostly up to 46.1 µM
Text: NIH Chemical Genomics Center [NCGC] NIH Molecular Libraries Probe Production centers Network [MLPCN] MLPCN Grant: R03 MH084179-01 Assay Submitter (PI): Elliot Androphy NCGC Assay Overview: Spinal muscular atrophy (SMA) is caused by insufficient levels of the survival motor neuron protein SMN. The SMN locus on chromosome 5q13 contains two inverted copies of SMN called SMN1 and SMN2 which are 99% identical at the amino acid level. […]
About 5,900 (2.8%) of roughly 210,000 compounds were called active. Not shown: some 5% with an inconclusive outcome. Calls come from the whole dose curve; as a rule, active = well fitted activation curve with a large enough effect; inconclusive = small, poorly fitted or top-dose-only effect; inactive = no such curve, though single readings can be large or run the other way. This excerpt belongs to a sample that is enriched for actives.
Respond only with the outcome that fits, drawn from 1 (active), -1 (inactive)

Worked set:
- molecule: "O=C(NCCC1=CCCCC1)C1CCN(Cc2cnn(-c3ccccc3)c2-n2cccc2)CC1"
  discreteLabel: -1
- molecule: "O=C(COc1ccccc1)N1CCc2ccccc2C1"
  discreteLabel: -1
- molecule: "CCc1ccccc1NC(=O)CSc1nnc(-c2ccncc2)o1"
  discreteLabel: -1
- molecule: "Cc1nn(CC(=O)N2CCN(c3cccc(C(F)(F)F)c3)CC2)c(=O)c2cc3sccc3n12"
  discreteLabel: -1
- molecule: "CC(=O)Nc1ccc(NC(=O)C(C)OC(=O)c2ccccc2C(=O)c2ccc(Cl)c([N+](=O)[O-])c2)cc1 (stereo not given)"
  discreteLabel: 1
- molecule: "CC(CC(=O)O)C(=O)c1ccc(Cl)c([N+](=O)[O-])c1 (stereo not given)"
  discreteLabel: -1
- molecule: "C1=C(CCNc2ncnc3c2cnn3-c2ccccc2)CCCC1"
  discreteLabel: 1
- molecule: "O=C(CSc1nnc(-c2ccc([N+](=O)[O-])cc2)o1)Nc1ccccn1"
  discreteLabel: 1

Hello, I am checking results. What call was entered for N#Cc1cccc(NC(=O)COC(=O)c2ccccc2C(=O)c2ccc(Cl)c([N+](=O)[O-])c2)c1 ?
-1

Hello, I am checking results. What call was entered for O=C(CSc1nnc(-c2ccncc2)o1)NCc1ccc(Cl)cc1 ?
-1

###

assayProtocol: qHTS Assay for Enhancers of SMN2 Splice Variant Expression; also: nearly all actives have a fitted effect of over 55% in size
conditionDetails: HEK293 SMN2-luciferase splicing reporter, luminescence, 30-36 h; series mostly up to 46.1 µM
The whole screen tested about 210,000 compounds, of which about 5,900 (2.8%) were called active. Roughly 5% stayed inconclusive and do not appear here. The call rests on the fitted dose curve; in most records, active means well fitted activation curve with a large enough effect; inconclusive means small, poorly fitted or top-dose-only effect; inactive means no such curve, though single readings can be large or run the other way. Only a selection was taken, and actives are over-represented in it overall.
Respond only with the outcome that fits, drawn from true (active), false (inactive)

Worked set:
- compound: "CNC(=S)N1N=C(c2ccccc2)CC1c1ccc(Br)cc1 (stereo unspecified)"
  discreteLabel: "false"
- compound: "O=C(Cc1cccc2ccccc12)NCCC1=CCCCC1"
  discreteLabel: "false"

Hello, I am checking results. What call was entered for CCc1cc(C(N)=O)c(NC(=O)c2ccc(OC)cc2)s1 ?
true

Hello, I am checking results. What call was entered for c1ccc(C2=Nc3cccc4cccc(c34)N2)cc1 ?
false

Hello, I am checking results. What call was entered for Cc1ccc(S(=O)(=O)c2nc(-c3ccco3)oc2SCC(=O)Nc2ccc(F)cc2)cc1 ?
false

Hello, I am checking results. What call was entered for Brc1ccc(C2CC(c3ccccc3)=Nc3ccccc3N2)cc1 (stereo unspecified) ?
true

###

assayProtocol: qHTS Assay for Enhancers of SMN2 Splice Variant Expression; also: nearly all actives have a fitted effect of over 55% in size
conditionDetails: HEK293 SMN2-luciferase splicing reporter, luminescence, 30-36 h; series mostly up to 46.1 µM
The whole screen tested about 210,000 compounds, of which about 5,900 (2.8%) were called active. Not shown: some 5% with an inconclusive outcome. The call rests on the fitted dose curve; in most records, active means well fitted activation curve with a large enough effect; inconclusive means small, poorly fitted or top-dose-only effect; inactive means no such curve, though single readings can be large or run the other way. Shown is part of a subset that was picked to be rich in actives.
Respond only with the outcome that fits, drawn from true (1) = active, false (0) = inactive

Worked set:
- compound: "O=C(Nc1cc(-c2nc3ccccc3o2)ccc1Cl)c1cc([N+](=O)[O-])ccc1N1CCOCC1"
  discreteLabel: "false (0)"
- compound: "CCc1ccc2oc(-c3ccc(C)c(NC(=O)/C=C/c4ccco4)c3)nc2c1"
  discreteLabel: "false (0)"
- compound: "CCCc1cc(=O)n2[nH]c(NCc3ccc(CC)cc3)nc2n1"
  discreteLabel: "false (0)"

Hello, I am checking results. What call was entered for CCN(CC)S(=O)(=O)c1ccc2c(c1)N(CC(=O)NCC(C)c1ccccc1)C(=O)CO2 (configuration not stated) ?
false (0)

Hello, I am checking results. What call was entered for COc1ccc(C(=O)NC(=S)Nc2ccc(N3CCCC3)cc2)cc1OC ?
false (0)

Hello, I am checking results. What call was entered for Cc1sc(C2C(C#N)=C(N)N(c3cccc(Cl)c3)C3=C2C(=O)CCC3)cc1CN1CCOCC1 (configuration not stated) ?
false (0)

Hello, I am checking results. What call was entered for Cc1cc(C)cc(NC(=O)Cn2c(=O)c3ccccc3n3nncc23)c1 ?
false (0)

Hello, I am checking results. What call was entered for CCc1ccc(NC(=O)Cn2c(=O)n(CCC(=O)NCc3ccc4c(c3)OCO4)c(=O)c3ccccc32)cc1 ?
false (0)

Hello, I am checking results. What call was entered for Cc1cc(NS(=O)(=O)c2ccc(NC(=O)c3ccccc3C)cc2)nc(C)n1 ?
false (0)

Hello, I am checking results. What call was entered for Cc1ccc(Cc2nc(-c3cccc(C)c3)no2)cc1 ?
true (1)

Hello, I am checking results. What call was entered for Cc1cccc(-c2noc(-c3ccc(F)cc3)n2)c1 ?
true (1)

Hello, I am checking results. What call was entered for CCc1ccc2oc(-c3ccc(N)cc3)nc2c1 ?
true (1)

Hello, I am checking results. What call was entered for Cn1c(=O)c2c(nc(SCC(=O)Nc3ccc(F)cc3)n2Cc2ccccc2)n(C)c1=O ?
false (0)

Hello, I am checking results. What call was entered for Cc1ccc(-c2noc(CC(c3ccccc3)c3ccccc3)n2)cc1 ?
false (0)

Hello, I am checking results. What call was entered for O=C(CSc1nnc(-c2ccco2)n1Cc1ccccc1)NC(=O)NCc1ccco1 ?
false (0)

Hello, I am checking results. What call was entered for Cc1ccc(Cl)cc1NC(=O)CCS(=O)(=O)c1ccc(Br)s1 ?
false (0)

Hello, I am checking results. What call was entered for Cc1ccccc1C(=O)Nc1ccc(N2CCCCCC2)cc1 ?
true (1)

Hello, I am checking results. What call was entered for CCCN(CCC)C(=O)C(Cc1ccccc1)NS(=O)(=O)c1ccc2c(c1)c(=O)n(C)c(=O)n2C (configuration not stated) ?
false (0)

Hello, I am checking results. What call was entered for c1ccc(CSc2nnc(-c3ccco3)n2Cc2ccccc2)cc1 ?
true (1)

Hello, I am checking results. What call was entered for COc1ccc2[nH]c(=O)c(-c3noc(-c4ccc(F)cc4)n3)cc2c1 ?
false (0)

Hello, I am checking results. What call was entered for COc1ccc(C2COC(=O)C2=N)c(NC(=O)c2ccccc2)c1 (configuration not stated) ?
false (0)

Hello, I am checking results. What call was entered for COc1ccccc1Cc1nc(-c2ccc(C)cc2)no1 ?
false (0)

###

assayProtocol: qHTS Assay for Enhancers of SMN2 Splice Variant Expression; also: nearly all actives have a fitted effect of over 55% in size
conditionDetails: HEK293 SMN2-luciferase splicing reporter, luminescence, 30-36 h; series mostly up to 46.1 µM
In all, about 210,000 compounds went through this assay and about 5,900 (2.8%) were called active. Another 5% or so got no clear call; they are omitted. Calls follow the shape of the dose curve; as a rule, active = well fitted activation curve with a large enough effect; inconclusive = small, poorly fitted or top-dose-only effect; inactive = no such curve, though single readings can be large or run the other way. Shown is part of a subset that was picked to be rich in actives.
Respond only with the outcome that fits, drawn from active, inactive

- compound: "Cc1cnc(C(=O)OCC(=O)N2CCc3ccccc32)cn1"
  discreteLabel: "inactive"
- compound: "COc1c2c(cc3occ(-c4ccc5c(c4)OCO5)c(=O)c13)OC(C)(C)C=C2"
  discreteLabel: "active"
- compound: "CCOC(=O)c1c(NC(=O)CSc2cn(CCNC(=O)c3cccc(C(F)(F)F)c3)c3ccccc23)sc2c1CCC2"
  discreteLabel: "inactive"
- compound: "CCOC(=O)C(Cc1ccccc1)NC(=O)CCc1c(C)nc2c(c(C)nn2-c2ccc(C)c(C)c2)c1C (stereo not given)"
  discreteLabel: "inactive"
- compound: "COc1ccc(NC(=O)c2ccc(OC)cc2)cc1"
  discreteLabel: "active"

Hello, I am checking results. What call was entered for CCCCOc1ccc(C(=O)N2CC(=O)Nc3ccc(Br)cc3C2c2ccc(F)cc2)cc1 (stereo not given) ?
inactive

Hello, I am checking results. What call was entered for O=C(c1cnn2ccccc12)N1CCc2ccccc21 ?
active

Hello, I am checking results. What call was entered for COC(=O)c1ccc(CN2CCC(CO)(Cc3ccc(OC)cc3)CC2)cc1 ?
inactive

Hello, I am checking results. What call was entered for COC(=O)CCC(=O)N1CCCC(CO)(Cc2ccccc2)C1 (stereo not given) ?
active

Hello, I am checking results. What call was entered for O=C(c1ccc2c(c1)N(Cc1ccccc1F)C(=O)c1ccccc1S2(=O)=O)N1CCOCC1 ?
inactive
